# EXPERIMENTAL SYSTEM: truncated PI3Kα (p110α/iSH2 p85α), PI3KA_Act (Homo sapiens (Human), UniProt P42336)
# Sequence (P42336 whole entry, the tested form may be a part): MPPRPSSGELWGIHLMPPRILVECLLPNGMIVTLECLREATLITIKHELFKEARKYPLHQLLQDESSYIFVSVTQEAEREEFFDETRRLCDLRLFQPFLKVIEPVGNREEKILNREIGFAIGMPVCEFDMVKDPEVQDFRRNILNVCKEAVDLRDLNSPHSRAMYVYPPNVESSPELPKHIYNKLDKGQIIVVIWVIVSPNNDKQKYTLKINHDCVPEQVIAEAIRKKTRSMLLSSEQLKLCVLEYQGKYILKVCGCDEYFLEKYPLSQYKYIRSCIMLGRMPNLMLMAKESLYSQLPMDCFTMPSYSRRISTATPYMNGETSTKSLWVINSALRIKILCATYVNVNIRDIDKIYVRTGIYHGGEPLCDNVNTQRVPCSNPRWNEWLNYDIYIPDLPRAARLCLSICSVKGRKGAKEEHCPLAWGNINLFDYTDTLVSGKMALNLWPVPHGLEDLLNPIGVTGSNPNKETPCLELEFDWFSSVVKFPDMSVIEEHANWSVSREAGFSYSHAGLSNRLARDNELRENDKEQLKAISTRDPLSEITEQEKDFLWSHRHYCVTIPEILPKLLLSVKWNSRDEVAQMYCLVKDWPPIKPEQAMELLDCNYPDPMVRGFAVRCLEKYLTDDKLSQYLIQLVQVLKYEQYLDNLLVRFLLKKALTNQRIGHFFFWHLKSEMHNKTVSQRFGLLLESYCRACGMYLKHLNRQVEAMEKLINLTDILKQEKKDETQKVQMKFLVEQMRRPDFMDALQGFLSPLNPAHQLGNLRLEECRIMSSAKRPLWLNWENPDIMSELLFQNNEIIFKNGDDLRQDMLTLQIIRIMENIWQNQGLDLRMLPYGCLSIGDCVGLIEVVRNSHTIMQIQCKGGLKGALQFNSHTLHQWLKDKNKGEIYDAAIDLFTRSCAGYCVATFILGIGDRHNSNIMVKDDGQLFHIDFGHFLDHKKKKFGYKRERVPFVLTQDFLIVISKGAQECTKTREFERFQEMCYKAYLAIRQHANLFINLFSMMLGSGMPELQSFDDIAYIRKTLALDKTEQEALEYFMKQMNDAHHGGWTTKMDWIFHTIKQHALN
# ASSAY PROTOCOL: PI3Kα biochemical kinase assay, fluorescence polarization format (PI3KA_Act)
# CONDITIONS: 0.5 nM p110α/iSH2 p85, 1 mM ATP, 30 μM PIP2, 15-min preincubation; Morrison equation fit; read-out: PI3KA_Act Ki
Please provide measured log10 of Ki for the entries that follow.
Annotation: log10 of Ki, nM basis.

Each of the following entries comes with a recorded value; kindly state log10 of Ki for each.
1. Nc1ncc(-c2cc(N[C@@]3(CO)CCN(C(=O)c4ccccn4)C3)nc(N3CCOCC3)n2)cn1
2. COC(=O)N1CCCC(CO)(Nc2cc(-c3cnc(N)nc3)nc(N3CCOCC3)n2)C1 (racemic)
3. C[C@H]1COCCN1c1nc(N[C@]2(C)CCN(C(=O)OC(C)(C)C)C2)cc(-c2cnc(N)nc2)n1
4. CC(C)(C)NC(=O)N1CC[C@](CO)(Nc2cc(-c3cnc(N)nc3)nc(N3CCOCC3)n2)C1
5. COC(=O)N1CC[C@](CO)(Nc2cc(-c3cnc(N)nc3C(F)(F)F)nc(N3CCOCC3)n2)C1
6. CC(C)OC(=O)N1CC[C@](CO)(Nc2nc(N3CCOCC3)nc(-c3cnc(N)nc3)c2F)C1
7. Nc1ncc(-c2cc(N[C@@]3(CO)CCN(CC(F)F)C3)nc(N3CCOCC3)n2)cn1
8. CC1(OC(=O)N2CC[C@](CO)(Nc3cc(-c4cnc(N)nc4)nc(N4CCOCC4)n3)C2)CC1

1: -1.21; 2: -1.52; 3: -0.01; 4: -0.15; 5: -0.70; 6: -1.51; 7: 0.18; 8: -1.60

====

# EXPERIMENTAL SYSTEM: truncated PI3Kα (p110α/iSH2 p85α), PI3KA_Act (Homo sapiens (Human), UniProt P42336)
# ASSAY PROTOCOL: PI3Kα biochemical kinase assay, fluorescence polarization format (PI3KA_Act)
# CONDITIONS: 0.5 nM p110α/iSH2 p85, 1 mM ATP, 30 μM PIP2, 15-min preincubation; Morrison equation fit; read-out: PI3KA_Act Ki
pKi: −log10 of the molar value.
Lab note: compare pKi against 10. Equal or greater, write label 1. Smaller, write label 0.

Confirm if pKi reported for the compound C[C@H]1COCCN1c1nc(N[C@@]2(CO)CCNC2)c(F)c(-c2cnc(N)nc2)n1 is 10 or above. label 0

Confirm if pKi reported for the compound CC(C)[C@H](N)C(=O)N1CC[C@](CO)(Nc2cc(-c3cnc(N)nc3)nc(N3CCOCC3)n2)C1 is 10 or above. label 0

Confirm if pKi reported for the compound Nc1ncc(-c2nc(N[C@@]3(CO)CCN(C(=O)OCC(F)F)C3)nc(N3CCOCC3)n2)cn1 is 10 or above. label 1

Confirm if pKi reported for the compound CN(c1cc(-c2cnc(N)nc2)nc(N2CCOCC2)n1)C1(CO)CCN(C(=O)OC(C)(C)C)C1 (centres unmarked) [Example 25] is 10 or above. label 1

Confirm if pKi reported for the compound COC(=O)N1CC[C@](CO)(Nc2cc(-c3cnc(N)nc3)nc(N3CCOCC3)n2)C1 is 10 or above. label 1

Confirm if pKi reported for the compound Nc1ncc(-c2nc(N3CCOCC3)nc(N[C@@]3(CO)CCCN(C(=O)OCC(F)F)C3)c2F)cn1 is 10 or above. label 1

Confirm if pKi reported for the compound Nc1ncc(-c2cc(NC3(CO)CNC3)nc(N3CCOCC3)n2)cn1 is 10 or above. label 0

Confirm if pKi reported for the compound C[C@H]1COCCN1c1nc(N[C@@]2(CO)CCN(C(=O)C3CC3)C2)c(F)c(-c2cnc(N)nc2)n1 is 10 or above. label 1

Confirm if pKi reported for the compound Nc1ncc(-c2cc(N[C@@]3(CO)CCN(C(=O)NCC(F)(F)F)C3)nc(N3CCOCC3)n2)cn1 is 10 or above. label 0
